MEASUREMENT_LABEL: melting point

Sample answers from the record:
MOLECULE: CN(N=Cc1c[nH]c2ccccc12)c1cc(N2CCOCC2)nc(OCCc2ccccn2)n1
ASSAY_RESULT: 130 to 140 °C
//
MOLECULE: O=C(O)Cc1cnc(Cc2ccc(NC(=O)c3ccc(C(F)(F)F)cc3)cc2)n2ccnc12
ASSAY_RESULT: 205 to 207 °C
//
MOLECULE: O=C(OCC1CC1)c1ncn2c1C1C=CCN1C(=O)c1c(Cl)cccc1-2 (stereo unspecified)
ASSAY_RESULT: 189 to 190 °C
//
MOLECULE: Cc1cc2c(cc1C)C(=O)C(Br)=C(N)C2=O
ASSAY_RESULT: 228 °C
//
MOLECULE: O=P1(c2ccccc2)CCCC1CO (stereo unspecified)
ASSAY_RESULT: 109 to 110 °C
//
MOLECULE: Cc1ccc(S(=O)(=O)N=c2ccc(C)cn2-c2cccc(C(F)(F)F)c2)cc1
ASSAY_RESULT: 174 °C
//
MOLECULE: O=C(Nc1nccs1)c1cnc2ccccc2c1O
ASSAY_RESULT: 349 to 350 °C
//
MOLECULE: c1ccc(-c2ncnn2-c2ccccc2)cc1
ASSAY_RESULT: 85 to 87 °C
//
MOLECULE: Cc1c(S(=O)(=O)Nc2ccc(-c3ncco3)cc2S(C)(=O)=O)sc2ccc(F)cc12
ASSAY_RESULT: 207 to 208 °C
//
MOLECULE: COc1ccc(Nc2nc(NC(C)C)nc(N(C)C3CCNCC3)n2)cc1Cl
ASSAY_RESULT: 129 °C

Challenge: Form field: reported melting point of CC(C)CC(NC(=O)O)C(=O)NC(C)(C)C#N (stereo unspecified)
Response given: 166 to 168 °C

This collection of values is drawn from a melting point compilation (Tetko et al.; mined from patent text by program, amines drawn as free bases though some values may be those of a salt).
